Test: Pyridostigmine level in rat sera after intramuscular dose, by RIA
Assay type: in vivo
Conditions: rat, serum, im, 1 mg/kg, 15 min; 1.0 mg/kg i.m.; male rats #1, #2, #3 in order; read-out: Pyridostigmine in the Rat Sera, individual animals
Protocol: To further validate the RIA and the antibody specificity of the present invention, additional rat studies were conducted. Male rats were housed two per cage at 23° C. with a twelve hour on-off light cycle. The animals were given food and water ad libitum. After sixty days, food was withheld for twelve hours. Then pyridostigmine was administered (1.0 mg. of pyridostigmine bromide in physiologic saline/Kg) intramuscularly to the rats weighing between 450 and 550 grams. […]
metric-name: concentration at 0.25 h (ng/mL)

INSERT INTO measurements (record_smiles, units_of_measure, val) VALUES
  ('CN(C)C(=O)Oc1ccc[n+](C)c1', 'ng/mL', 400);

Entry source: patent US5268308A
